Reference source for all entries: patent US20120213794A1

# experimental.system: murine PCSK9 (mouse, UniProt Q80W65 35-694, limits assumed)
# Sequence (Q80W65 35-694 limits assumed): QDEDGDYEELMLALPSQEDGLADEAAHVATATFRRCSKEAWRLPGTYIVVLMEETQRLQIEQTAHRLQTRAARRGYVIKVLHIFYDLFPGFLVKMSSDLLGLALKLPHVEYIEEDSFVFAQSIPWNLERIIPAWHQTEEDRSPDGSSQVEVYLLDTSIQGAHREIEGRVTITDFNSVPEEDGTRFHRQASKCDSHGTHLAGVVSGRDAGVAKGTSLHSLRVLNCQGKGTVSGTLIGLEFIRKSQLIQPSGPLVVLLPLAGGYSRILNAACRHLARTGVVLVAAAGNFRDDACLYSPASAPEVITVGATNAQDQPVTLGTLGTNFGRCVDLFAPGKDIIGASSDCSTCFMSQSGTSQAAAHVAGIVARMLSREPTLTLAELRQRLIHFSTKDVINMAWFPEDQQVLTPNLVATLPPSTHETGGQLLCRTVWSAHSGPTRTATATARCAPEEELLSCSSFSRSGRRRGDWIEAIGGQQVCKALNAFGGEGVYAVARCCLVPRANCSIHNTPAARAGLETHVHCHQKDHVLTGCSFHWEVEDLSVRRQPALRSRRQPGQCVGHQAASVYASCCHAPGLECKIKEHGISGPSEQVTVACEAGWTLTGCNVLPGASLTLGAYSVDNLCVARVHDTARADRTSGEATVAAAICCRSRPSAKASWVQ
# assay.details: cell-based or functional assay
measure: IgG2 IC50 (nM), inhibition of PCSK9 (LDL uptake assay)
Give a bare numeral; the unit nM is implied.

Take a look at these entries with their results.
[
  {
    "binder": "AX213 IgG2 (antibody, V domains shown) VH: EVQLLESGGGLVQPGGSLRLSCKASGYTFSRYGINWVRQAPGKGLEWIGRIDPGNGGTRYNEKFKGKATISRDNSKNTLYLQMNSLRAEDTAVYYCARANDGYSFDYWGQGTLVTVSS VL: EIVLTQSPATLSLSPGERATITCRASQYVGSYLNWYQQKPGQAPRLLIYDASNRATGIPARFSGSGSGTDFTLTISSLEPEDFAVYYCQVWDSSPPVVFGGGTKVEIKR",
    "val": 7
  },
  {
    "binder": "AX137 IgG2 (antibody, V domains shown) VH: EVQLLESGGGLVQPGGSLRLSCKASGYTFSSYGMYWVRQAPGKGLEWIGWIDPGSGGTKYNEKFKGKATISRDNSKNTLYLQMNSLRAEDTAVYYCARERYGYYFDYWGQGTLVTVSS VL: EIVLTQSPATLSLSPGERATITCRASQYIGSYLNWYQQKPGQAPRLLIYDASNRATGIPARFSGSGSGTDFTLTISSLEPEDFAVYYCQAWDSSPPVVFGGGTKVEIK",
    "val": 5.3
  },
  {
    "binder": "AX210 IgG2 (antibody, V domains shown) VH: QVQLLESGGGLVQPGGSLRLSCKASGYTFSSYSIYWVRQAPGKGLEWIGWIDPGNGGTRYNQKFQSKATISRDNSKNTLYLQMNSLRAEDTAVYYCARARVGYSLDYWGQGTLVTVSS VL: EIVLTQSPATLSLSPGERATITCRASQYVGSYLNWYQQKPGQAPRLLIYDASNRATGIPARFSGSGSGTDFTLTISSLEPEDFAVYYCQVWDSSPPVVFGGGTKVEIK",
    "val": 15.9
  },
  {
    "binder": "AX212 IgG2 (antibody, V domains shown) VH: QVQLLESGGGLVQPGGSLRLSCKASGYTFSSYSFSWVRQAPGKGLEWIGYIDPGSGGTKYNQKFQGKATISRDNSKNTLYLQMNSLRAEDTAVYYCARQRVGYSLDYWGQGTLVTVSS VL: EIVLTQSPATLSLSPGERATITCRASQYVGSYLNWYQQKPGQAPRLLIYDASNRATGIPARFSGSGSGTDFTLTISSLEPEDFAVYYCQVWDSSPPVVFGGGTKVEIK",
    "val": 7.3
  },
  {
    "binder": "AX211 IgG2 (antibody, V domains shown) VH: QVQLLESGGGLVQPGGSLRLSCKASGYTFSRQGFTWVRQAPGKGLEWIGWIDPGNGGTRYNEKFKGKATISRDNSKNTLYLQMNSLRAEDTAVYYCARYRVGYSLDYWGQGTLVTVSS VL: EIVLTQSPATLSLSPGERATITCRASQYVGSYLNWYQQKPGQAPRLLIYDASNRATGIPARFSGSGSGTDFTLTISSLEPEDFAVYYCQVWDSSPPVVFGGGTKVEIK",
    "val": 11.1
  }
]

Now let's try a different one.
IgG2 IC50 (nM), inhibition of PCSK9 (LDL uptake assay) lookup needed for AX114 IgG2 (antibody, V domains shown) VH: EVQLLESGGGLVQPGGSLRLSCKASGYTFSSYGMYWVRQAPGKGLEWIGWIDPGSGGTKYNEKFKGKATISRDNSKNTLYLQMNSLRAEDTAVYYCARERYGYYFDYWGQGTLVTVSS VL: EIVLTQSPATLSLSPGERATITCRASQYVGTYLNWYQQKPGQAPRLLIYDASNRATGIPARFSGSGSGTDFTLTISSLEPEDFAVYYCQVWDSSPPVAFGGGTKVEIK , thanks.
27.4
